The reader will find reported GI50 values listed item by item below.
Tested on: SK-MEL-28
procedure_details: NCI tumour cell line growth inhibition, 48 h
Active and inactive are the calls of the source. Cut-off read from the data, not from the text of the source: active = GI50 up to about 1.1 µM and inactive = higher.

• CC1(/C=C/CCSc2ccccc2)CC(=O)C2CC1C2(C)C (stereo unspecified) = 25.1 µM (inactive)
• N#CC(C#N)=CSc1ccccc1 = 23.8 µM (inactive)
• O=C1CCCC/C1=C\c1ccc([N+](=O)[O-])cc1 = 11.4 µM (inactive)
• COc1ccc2nc(N/N=C/c3ccc(C)s3)cc(C)c2c1 = 26.5 µM (inactive)

Can you look up the measured GI50 of C=CCNC(=O)N(CCC)CCCC(NC(C)=O)C(=O)NCc1ccccc1 (stereo unspecified) for me?
> 100 µM (inactive)

Please answer likewise for O=c1c2ccccc2[nH]c2c(Cl)cc(Cl)c(NC3CCCCC3)c12
27 µM (inactive)

Source listed as ChEMBL document CHEMBL1201862.
